Endpoint label: melting point

| Molecule | Value observed |
| --- | --- |
| Nc1c(-c2ccc(-c3ccc(F)cc3F)cc2)nc2ccccc2c1C(=O)O | 244 to 247 °C |
| NC(=O)c1c(Cl)c(-c2cccnc2)n2c1CN(S(=O)(=O)c1ccc(C(F)(F)F)cc1)CC2 | 205 to 206 °C |
| O=C1Cc2ccc(F)cc2Sc2cc(F)c(Cl)cc21 | 131 to 133 °C |
| COC(=O)C1CCCC(=C(N)c2ccc(Cl)cc2)C(=O)C1 (centres undefined) | 154 to 155 °C |
| O=C1CCC(=O)N1c1cccc2ccccc12 | 154 °C |
| CC(C)(C)OC(=O)NCCc1cccc(C(=O)Nc2ccc(Nc3cc(-c4cccc5c4oc4ccccc45)ncn3)cc2)c1 | 235 to 238 °C |
| COc1ccc2c(c1)C(C(=O)N(Cc1ccc(NCc3ccccc3)cc1)c1ccc(C(C)C)cc1)CCC2 (centres undefined) | 135 to 138 °C |
| Cc1cc(C)cc(-c2cnn3c(-c4cccc(-c5nnn(CCN6CCCCC6)n5)c4)ccnc23)c1 | 66 °C |
| COC(=O)c1nn(-c2ccccc2)c2c1CCc1cc(Cl)ccc1-2 | 190 to 192 °C |

###

| Molecule | melting point |
| --- | --- |
| CCNC(=S)N1CCN([C@H](C)[C@](O)(Cn2cncn2)c2ccc(F)cc2F)CC1 | 96 to 98 °C |
| COc1cc(C(=O)c2c(C)c(C(=O)OCc3ccccc3)c3cc(NC(=O)OC(C)(C)C)ccn23)ccc1[N+](=O)[O-] | 95 °C |
| Cc1csc(C)c1CO | 80 to 81 °C |
| OCC1CCN(CC(O)c2ccc(F)cc2)CC1 (stereo unspecified) | 113 °C |
| NC(=O)CCCCCc1cccnc1 | 64 to 65 °C |
| CCc1c(OC)nc(OC)nc1C(C#N)c1cc(Cl)cc(Cl)c1 (stereo unspecified) | 121 to 122 °C |
| NC(=O)OCC1COC(C(F)(F)F)(C(F)(F)F)O1 (stereo unspecified) | 52 to 54 °C |
| CN1CCN(CC2COc3cc4ncnc(Nc5cccc(Br)c5)c4cc3O2)CC1 (stereo unspecified) | 182 to 189 °C |
| CCOC(OCC)c1c(C#N)cnn1-c1cc(SC)n(C)n1 | 154 to 158 °C |
| CC1(C)NC(=O)N(CC(CSc2ccc(-c3ccc(C(F)(F)F)cc3)cc2)N(O)C=O)C1=O (stereo unspecified) | 172 to 174 °C |
| CCc1c(CC(=O)NCCCCCCNC(=O)Cc2ccc([N+](=O)[O-])cc2)ccc(OC)c1OC | 146 to 148 °C |
| CC(C)(C)c1cc(CCC(=O)ON(Cc2ccccc2)Cc2ccccc2)cc(C(C)(C)C)c1O | 93 to 95.5 °C |
| CS(=O)(=O)c1ccc(-c2c(-c3ccc(F)cc3)c(OCC(=O)c3ccc(F)cc3)nn2CC(=O)c2ccc(F)cc2)cc1 | 194 to 196 °C |
| O=C(Nc1ccc(Oc2cccc(Cl)c2)c(Cl)c1)c1ccccn1 | 91.5 to 93.5 °C |
| O=C(CSc1ccncc1)C12CC3CC(CC(C3)C1)C2 | 114 to 115 °C |
| Cc1ccc(S(=O)(=O)OCCC2C3=C(CC=CC3)CCc3ccccc32)cc1 (stereo unspecified) | 150 to 151 °C |
| CCOC(=O)C1CCC(=O)C(Sc2ccc(C)cc2)C1 (stereo unspecified) | 87 to 89 °C |
| COc1cc(C=C(C)[N+](=O)[O-])cc2c1OC(C)(C)C2 | 120 to 121 °C |
| CN(C)CC(c1ccc(OC(=O)c2ccccc2)cc1)C1(OC(=O)c2ccccc2)CCCCC1 (stereo unspecified) | 128 to 130 °C |
| CCOC(=O)C(=CNc1ccc2c(c1)N1CCN=C1S2)C(=O)OCC | 140 °C |
| CCCOCc1cc(OC)c(-c2ccc(C[C@H](NC(=O)c3c(Cl)cccc3Cl)C(=O)O)cc2)c(OC)c1 | 183 to 186 °C |
| O=C(O)Cc1c(C(=O)O)c2cc(Oc3ccc(OC(F)(F)F)cc3)ccc2n1-c1ccc(N2CCCCC2)cc1 | > 200 °C |
| COCC(=O)Nc1c(Cl)c(Cl)cc2nc(OC)c(OC)nc12 | 171 to 173 °C |
| CCOC(=O)c1nccn1CCCc1ccc(OCc2coc(/C=C/c3ccccc3)n2)cc1 | 123 to 124 °C |
| O=S(=O)(N[C@H](CO)[C@@H](c1ccccc1)C(F)(F)F)c1ccc(Cl)cc1 | 129 to 131 °C |
| O=C1CCC(c2c[nH]c3ccccc23)CC1 | 123 to 125 °C |
| COc1ccc(C2=NN(Cc3ccc(NC(=O)c4cccnc4)cc3)C(=O)CC2)cc1OC | 184 °C |
| Cc1cc(-c2nc3ccccc3c(=O)[nH]2)cc(C)c1OCCO | 260 to 261 °C |
| COc1c(Br)c(C)nc(C)c1-c1ccc(Oc2ccc(OC(F)(F)F)cc2)cc1 | 39 to 41 °C |
| Cc1nc(NC(=N)N)sc1C=O | 176 to 178 °C |
| CNC(=O)COc1cc(OC)ccc1O | 136 to 138 °C |
| CC1(c2ccccc2)OC(C(=O)O)Oc2ccccc21 (stereo unspecified) | 153 °C |
| O=C1Nc2ccccc2CO1 | 118 to 119 °C |
| CCOC(=O)c1cnn2c1nc(OCCC(C)C)c1cnc3c(cnn3CC)c12 | 117 to 118 °C |
| COc1ccc(Cl)cc1C(=O)NCCc1ccc(C=CC(=O)O)cc1 | 197 to 198 °C |
| CCCCCCCCCCSC(=S)N1Cc2[nH]c3ccccc3c2CC1CO (stereo unspecified) | 115 to 118 °C |
| O=C1CCOc2c(Cl)cc(Br)cc21 | 109 °C |
| O=C1CCCCC1Oc1ccc(-c2c(-c3ccccc3)nn3ccccc23)nn1 (stereo unspecified) | 214 to 216 °C |
| COC(=O)CCc1cc(F)ccc1C(=O)CCCNC(C)=O | 39 to 40 °C |
| COc1ccc(CCNC(=O)C(F)(F)F)c2c1NC(=O)C2 | 175 to 178 °C |
| CCC(O)c1cc(C2(c3cccc(-c4cccnc4F)c3)N=C(N)N(C)C2=O)cn1CC (stereo unspecified) | 115 to 121 °C |

###

This listing pairs molecules with measured melting point.

| Molecule | melting point |
| --- | --- |
| Cc1cccc(C2=C(c3ccc(F)c(-c4cn[nH]c4)c3)NN(C(C)C)C2)n1 | 129 to 136 °C |
| COC(=O)C1=C(COCC(C)n2c(C)nc(C)c2C)Nc2c(c(=O)n(C)c(=O)n2C)C1c1ccccc1Cl (stereo not given) | 180 to 182 °C |
| O=C(O)Cc1c(C(=O)c2cc(CO)ccn2)[nH]c2ccc(Cl)cc12 | 218 to 219 °C |
| CC1(C)Oc2ccc(C#N)cc2[C@@H](NC(=O)c2ccccn2)[C@@H]1O (relative stereo) | 165 °C |
| CC(C)(Br)c1ccc2occ(C#N)c(=O)c2c1 | 115 to 117 °C |

###

This listing pairs compounds with measured melting point.

| Compound | melting point |
| --- | --- |
| CCCn1c(COC)nc2c(N)nc3ccc(OCC4CCCN(C)C4)cc3c21 (stereo not given) | 194 to 196 °C |
| Cc1cc(NS(=O)(=O)c2cccs2)c2[nH]c(C3=NCCS3)cc2c1 | 202 to 203 °C |
| COc1cc(C(=O)CCCc2ccccc2)ccc1OCc1ccccc1 | 81 to 82 °C |
| Clc1ccccc1-c1nc(Cl)n(-c2ccccc2Cl)n1 | 95.5 °C |
| O=C1CCCCC1C(C[N+](=O)[O-])c1ccccc1Cl (racemic) | 107 to 108 °C |

###

| Compound | melting point |
| --- | --- |
| CC(=O)c1ccc(-c2ccc(F)cc2)c(N)c1 | 88 to 91 °C |
| Cn1cc(C2=C(c3c4n(c5ccccc35)C[C@@H]3CN(C(=O)OC(C)(C)C)C[C@@H]3C4)C(=O)NC2=O)c2ccccc21 (relative stereo) | 173 to 175 °C |
| COC(=O)c1c(O)ccc(CNC(=O)CCCCCNC(=O)OC(C)(C)C)c1O | 73 to 76 °C |
| c1ccc2cc(N3CCC4(CCNCC4)CC3)ccc2c1 | 158 to 162 °C |
| CCOC(=O)C(CC(C)C)NC(=O)C(Cc1ccccc1)NC(=O)CNC(=O)CNC(=O)C(Cc1ccc(OCc2ccccc2)cc1)NC(=O)OC(C)(C)C (stereo not given) | 149 to 152 °C |
| CSc1ccc(C(=O)Nc2ccc3ccc(Cl)nc3n2)s1 | 235 °C |
| Nc1cc(F)c(OC(F)F)cc1[N+](=O)[O-] | 95 to 97.5 °C |
| CNS(=O)(=O)CC(=O)c1cc(OC)c(OC)c(OC)c1N | 125 to 127 °C |
| COc1cc2nc(S(=O)(=O)Nc3c(OC)ccnc3Cl)nn2c(OC)n1 | 197 to 199 °C |
| COc1ccc(N2CCN(c3ccc(OC)nc3-c3ccc(OC)cc3CO)CC2)cc1 | 163 to 165 °C |
